The origin of these recorded values is ChEMBL document CHEMBL3046316.

System: Tetranychus urticae
assay-name: Acaricidal activity against Tetranychus urticae (two-spotted spider mite) assessed as mite mortality at 200 ppm relative to untreated control
Assay type: functional
measurement-type: mortality at 200 ppm

1) Cc1nn(C)c(C(=O)Nc2nnc(C(F)(F)F)s2)c1Cl: > 80%
2) CC(C)Cc1nn(C)c(C(=O)Nc2nnc(C(F)(F)F)s2)c1Cl: > 80%
3) CCCc1nn(C)c(C(=O)Nc2nnc(C(F)(F)F)s2)c1Cl: > 80%

-- ask Which mortality at 200 ppm reading was recorded for the compound CC(C)c1nn(C)c(C(=O)Nc2nnc(C(F)(F)F)s2)c1Cl ?
-- reply > 80%

-- ask Would you mind doing CCC(C)c1nn(C)c(C(=O)Nc2nnc(C(F)(F)F)s2)c1Cl (configuration not stated) as well?
-- reply > 80%

-- ask Would you mind doing Cn1nc(C(C)(C)C)c(Br)c1C(=O)Nc1nnc(C(F)(F)F)s1 as well?
-- reply > 80%

-- ask Would you mind doing CCc1nn(C)c(C(=O)Nc2nnc(C(F)(F)F)s2)c1Cl as well?
-- reply > 80%
